- Tested Target: pooled human IgG
Reported Enzyme Activity Endpoint Assay: Fab′2 values for the following proteins.
Field: numeric (ng/µL). Do not append units.

# input Field request: Enzyme Activity Endpoint Assay: Fab′2 | item: PRT-32 (protein) MANQEIRYSEVTPYHVTSVWTKGVTPPANFTQGEDVFHAPYVANQGWYDITKTFNGKDDLLCGAATAGNMLHWWFDQNKDQIKRYLEEHPEKQKINFNGEQMFDVKEAIDTKNHQLDSKLFEYFKEKAFPYLSTKHLGVFPDHVIDMFINGYRLSLTNHGPTPVKEGSKDPRGGIFDAVFTRGDQSKLLTSRHDFKEKNLKEISDLIKKELTEGKALGLSHTYANVRINHVINLWGADFDSNGNLKAIYVTDSDSNASIGMKKYFVGVNSAGKVAISAKEIKEDNIGAQVLGLFTLSTGQDIWNQTN
# output 48

Continuing:
# input Field request: Enzyme Activity Endpoint Assay: Fab′2 | item: PRT-593 (protein) MANQEIRYSEETPSTITSVWTKGVTPPTDFIQNEDVLHAPYIANQGWYDITKTFNGKDDLLCGAATAGNMLHWWFDQNKEQIENYLKKHPEKQKINFNGEQMFDVKEAIDTKDHQTDSALFEYFKDKAFPYLSTKHLGVFPDHVIDMFINGYRLSLTNHGPTPVKRGTKDPRGGIFDAVFTRGDQSKLLTSRHDFKEKTLNEISDLIKQELTEGKALGLSHTYANVRINHVINLWGADFNAEGNLEAIYVTDSDSNASIGMKKYYVGVNSAGKVAISAKEIEGDNIGAQVLGLFTLSTGQDIWNQTNLEHHHHHH
# output 797
